# assayedTarget: Hfq wt (Escherichia coli, UniProt P0A6X3 1-102)
# assayProcedure: competition
Measured IC50 values are reported for all entries that follow.
measurementName: IC50 (nM)

# binder, resultUnits, numericValue
rows = [
    ("AgvB (structured_RNA) RNA: GGCGAUAACACAACAAUAUCAGUAUCUCAUGCUAUUGCCCGAACCCAUUCGGGCAUUUUU", "nM", 3.2),
    ("3'ETSleuZ (structured_RNA) RNA: GGCCCGGAUGGUGGAAUCGGUAGACACAAGGGAUUUAAAAUCCCUCGGCGUUCGCGCUGUGCGGGUUCAAGUCCCGCUCCGGGUACCAUGGGAAAGAUAAGAAUAAAAUCAAAGCAAUAAGCAGUGUCGUGAAACCACCUUCGGGUGGUUUUUUU", "nM", 2.8),
]
